All figures here come from paper PMC8225628.

The following compounds are listed with their measured inhibition at 10 µM values.
Molecular target: SARS-CoV-2 PL^pro (Severe acute respiratory syndrome coronavirus 2, UniProt P0DTD1)
Assay: biochemical
Settings: read-out: PL^pro % inhibition at 10 µM; ReFRAME hits, 10 µM
Readout: inhibition at 10 µM (%)

>>> observed_measurement("CCOC(=O)C[C@H](NC(=O)[C@H](C)NC(=O)[C@@H](NC(=O)OCc1ccccc1)C(C)C)C(=O)COC(=O)c1c(Cl)cccc1Cl [Compound 4, reference compound]")
19
>>> observed_measurement("CC(C)(C)NC(=O)N[C@H](C(=O)N1C[C@H]2[C@@H]([C@H]1C(=O)NC(CC1CCC1)C(=O)C(N)=O)C2(C)C)C(C)(C)C (stereo partly drawn) [Boceprevir, reference compound]")
-2
>>> observed_measurement("O=c1cc(-c2ccc(O)c(-c3c(O)cc(O)c4c(=O)cc(-c5ccc(O)cc5)oc34)c2)oc2cc(O)cc(O)c12")
4
